test: APR_HepG2_P-H2AX_24hr: Apredica 24-hour HepG2 Assay for H2AX Phosphorylation (AID 2282920); conditions: high-content imaging, actives raise or lower the signal
Active and inactive are the calls of the source. Rule for the calls: active = hit-call score of the fitted dose curve at least 0.9, where 1 is the maximum; inactive = score below 0.9.
Respond using exactly one of the listed classes: true for active, false for inactive

Recorded results for 5 compounds are shown here.
Compound	Cat
C#CCOS(=O)OC1CCCCC1Oc1ccc(C(C)(C)C)cc1 (stereo unspecified)	false
CCNc1nc(Cl)nc(NCC)n1	false
CO/C=C(/C(=O)OC)c1ccccc1Oc1cc(Oc2ccccc2C#N)ncn1	false
COC(=O)c1ccccc1C(=O)OC	false
COc1ccc(C(c2ccc(OC)cc2)C(Cl)(Cl)Cl)cc1	false

Prompt: Tell me the recorded outcome of this test for "CCCCNC(=O)n1c(NC(=O)OC)nc2ccccc21" .
Completion: true

---

read-out: Signal transducer and activator of transcription 3 (Homo sapiens); test: LTEA_HepaRG_STAT3: Life Technologies and Expression Analysis (LTEA) Assay for Signal transducer and activator of transcription (STAT3) using HepaRG (AID 2283529); conditions: mRNA level, 48 h; actives raise or lower the signal
The source made the active and inactive calls. Rule for the calls: active = hit-call score of the fitted dose curve at least 0.9, where 1 is the maximum; inactive = score below 0.9.
Respond using exactly one of the listed classes: true (1) = active, false (0) = inactive

Compound	Cat
CC(C)(C)c1ccc(CSc2cnn(C(C)(C)C)c(=O)c2Cl)cc1	false (0)
CCCCNC(=O)OCC#CI	false (0)
Cc1ccc(-c2c(Cl)nc(C#N)n2S(=O)(=O)N(C)C)cc1	true (1)
CC(C)C1(C)N=C(c2nc3ccccc3cc2C(=O)O)NC1=O (stereo unspecified)	false (0)
N#Cc1cc(Br)c(O)c(Br)c1	true (1)

Now look at this one.
Prompt: Tell me the recorded outcome of this test for CCCC1COC(Cn2cncn2)(c2ccc(Cl)cc2Cl)O1 (stereo unspecified) .
Completion: false (0)

---

experiment: APR_HepG2_p53Act_72hr: Apredica 72-hour HepG2 Assay for p53 Activation (AID 2282923); details: high-content imaging, actives raise or lower the signal;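 note: average cellular p53 protein immunofluorescence intensity in HepG2 cells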
Activity calls are given as the source filed them. Rule for the calls: active = hit-call score of the fitted dose curve at least 0.9, where 1 is the maximum; inactive = score below 0.9.
Respond using exactly one of the listed classes: True for active, False for inactive

Prompt: Tell me the recorded outcome of this test for "COc1nc(NC(C)C)nc(NC(C)C)n1" .
Completion: False

Prompt: Do the same for Cc1c(F)c(F)c(COC(=O)C2C(/C=C(\Cl)C(F)(F)F)C2(C)C)c(F)c1F (stereo not given) please
Completion: False

Prompt: Do the same for "Fc1ccc(Oc2ccnc3cc(Cl)cc(Cl)c23)cc1" please
Completion: False

Prompt: Do the same for CCCC1COC(Cn2cncn2)(c2ccc(Cl)cc2Cl)O1 (stereo not given) please
Completion: False

Prompt: Do the same for "COc1nc(C)nc(NC(=O)NS(=O)(=O)c2ccccc2Cl)n1" please
Completion: False

---

molecular target: human CYP1A2, CYP1A2 (gene 1544) (UniProt P05177); assay: NVS_ADME_hCYP1A2: NovaScreen (NVS) CYP450-related Enzyme Activity (ADME) Assay for human CYP1A2 (AID 2283102)
Sequence (P05177 whole entry, looked up): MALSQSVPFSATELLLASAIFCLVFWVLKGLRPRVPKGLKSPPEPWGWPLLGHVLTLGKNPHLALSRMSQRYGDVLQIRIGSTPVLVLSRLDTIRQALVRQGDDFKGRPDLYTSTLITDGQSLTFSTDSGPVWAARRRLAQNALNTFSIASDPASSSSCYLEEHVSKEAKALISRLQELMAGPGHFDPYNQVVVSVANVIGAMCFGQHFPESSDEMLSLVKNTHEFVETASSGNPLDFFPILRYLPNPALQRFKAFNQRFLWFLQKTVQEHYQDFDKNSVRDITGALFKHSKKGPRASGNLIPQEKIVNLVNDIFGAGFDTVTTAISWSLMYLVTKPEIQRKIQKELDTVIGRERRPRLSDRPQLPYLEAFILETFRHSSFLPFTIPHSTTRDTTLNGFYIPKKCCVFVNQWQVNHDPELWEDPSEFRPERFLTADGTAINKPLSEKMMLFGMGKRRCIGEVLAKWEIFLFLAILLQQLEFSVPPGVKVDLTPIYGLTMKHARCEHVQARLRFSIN
Activity calls are given as the source filed them. The calls were made as follows: active = hit-call score of the fitted dose curve at least 0.9, where 1 is the maximum; inconclusive = response in the unintended direction; inactive = score below 0.9.
Respond using exactly one of the listed classes: true (active), false (inactive)

Recorded results for 3 compounds are shown here.
Compound	Cat
CCOP(=S)(OCC)SCn1c(=O)oc2cc(Cl)ccc21	true
COC(=O)N(OC)c1ccccc1COc1ccn(-c2ccc(Cl)cc2)n1	true
CCOC(=O)CC(SP(=S)(OC)OC)C(=O)OCC (stereo unspecified)	true

Prompt: Tell me the recorded outcome of this test for "Cc1ccc(-c2c(Cl)nc(C#N)n2S(=O)(=O)N(C)C)cc1" .
Completion: true

Prompt: Do the same for C=CC1(C)OC(=O)N(c2cc(Cl)cc(Cl)c2)C1=O (stereo unspecified) please
Completion: false

Prompt: Do the same for "CNC(=S)S" please
Completion: false
